Notes on AC50 obtained with UniProtKB P10635.
Sequence (P10635 whole entry): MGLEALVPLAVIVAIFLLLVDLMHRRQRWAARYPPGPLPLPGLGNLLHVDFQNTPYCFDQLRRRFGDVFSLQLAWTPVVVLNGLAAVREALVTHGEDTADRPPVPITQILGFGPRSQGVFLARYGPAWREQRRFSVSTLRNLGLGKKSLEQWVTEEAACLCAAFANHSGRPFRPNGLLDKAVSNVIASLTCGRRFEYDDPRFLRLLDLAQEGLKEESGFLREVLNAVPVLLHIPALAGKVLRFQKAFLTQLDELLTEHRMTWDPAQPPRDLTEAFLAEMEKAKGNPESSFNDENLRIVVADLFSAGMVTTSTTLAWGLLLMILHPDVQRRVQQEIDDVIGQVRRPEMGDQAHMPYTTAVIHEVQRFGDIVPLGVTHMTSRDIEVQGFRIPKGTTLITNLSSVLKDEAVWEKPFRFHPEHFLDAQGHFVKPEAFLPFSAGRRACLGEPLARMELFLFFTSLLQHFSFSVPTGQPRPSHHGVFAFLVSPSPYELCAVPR
Endpoint Label: AC50

- Compound: "COc1ccc(-n2c(=O)c(-c3cc(F)cc(F)c3)nc3cnc(N4CCOCC4)nc32)cc1"
  Endpoint Label: "AC50"
  Measured Result: "20 µM (inconclusive)"
- Compound: "CC(=O)Nc1ccc(-c2nnc(SCC(=O)c3ccc4c(c3)Cc3ccccc3-4)n2C)cc1"
  Endpoint Label: "AC50"
  Measured Result: "14.1 µM (inconclusive)"
- Compound: "CN(C)c1nccc(N(Cc2ccccc2)Cc2ccccc2)c1C#N"
  Endpoint Label: "AC50"
  Measured Result: "10 µM (inconclusive)"
- Compound: "Cc1ccc(S(=O)(=O)Nc2nc(C)c(NC(=O)Nc3ccc(Cl)cc3Cl)s2)cc1"
  Endpoint Label: "AC50"
  Measured Result: "28.2 µM (inconclusive)"
- Compound: "O=C(c1ccncc1)N1CCC2(CC1)CN(Cc1cc(C(F)(F)F)cc(C(F)(F)F)c1)C2"
  Endpoint Label: "AC50"
  Measured Result: "31.6 µM (inconclusive)"
- Compound: "CCOc1ccc(N2C(=O)c3cccnc3C2=O)cc1"
  Endpoint Label: "AC50"
  Measured Result: "0.178 µM (inconclusive)"
- Compound: "COc1ccc2[nH]cc(CCNc3cc(-c4ccccc4C(F)(F)F)ncn3)c2c1"
  Endpoint Label: "AC50"
  Measured Result: "20 µM (inconclusive)"
- Compound: "CCC1CCc2c(c3ccccc3[nH]c2=O)O1 (stereo not drawn)"
  Endpoint Label: "AC50"
  Measured Result: "39.8 µM (inconclusive)"
- Compound: "CCn1c(CNC(=O)COc2ccc(C(C)C)cc2)nnc1SCC(=O)Nc1cc(F)ccc1C"
  Endpoint Label: "AC50"
  Measured Result: "22.4 µM (inconclusive)"
- Compound: "Cc1nn2c(O)c3c(nc2c1-c1cccc2ccccc12)CCC3"
  Endpoint Label: "AC50"
  Measured Result: "35.5 µM (inconclusive)"
- Compound: "O=c1cc(N2CCCCC2)c(-c2ccccc2)nn1Cc1ccccc1Cl"
  Endpoint Label: "AC50"
  Measured Result: "28.2 µM (inconclusive)"
- Compound: "O=C(CC(c1ccccc1)c1ccccc1)NCC1CCCO1 (stereo not drawn)"
  Endpoint Label: "AC50"
  Measured Result: "11.2 µM (inconclusive)"
- Compound: "O=c1c2ccccc2nc(-c2ccc(Br)cc2)n1Cc1ccccc1"
  Endpoint Label: "AC50"
  Measured Result: "25.1 µM (inconclusive)"

###

Measured EC50, listed per entry.
# Assay: luciferase reporter signal suppression in cells – H4 neuroglioma cells, luminescence, dose response (AID 1990)
# Format: functional, cell-based
Active and inactive are the calls of the source.
Endpoint Label: EC50

- Compound: "Nc1nc(NCc2ccco2)nc(Nc2ccc(F)cc2)c1[N+](=O)[O-]"
  Endpoint Label: "EC50"
  Measured Result: "35 µM (active)"
- Compound: "CCOC(=O)c1sc2nc(CC(=O)OC)nc(N3CCN(c4ccc(OC)cc4)CC3)c2c1C"
  Endpoint Label: "EC50"
  Measured Result: "> 120 µM (not active)"
- Compound: "CCOC(=O)c1ccc(NC(=O)c2nc(S(=O)(=O)Cc3ccccc3)ncc2Cl)cc1"
  Endpoint Label: "EC50"
  Measured Result: "> 120 µM (not active)"
- Compound: "COC(=O)Nc1nc(-c2ccccc2)c(C(=O)c2ccc(Cl)cc2)s1"
  Endpoint Label: "EC50"
  Measured Result: "7.45 µM (active)"
- Compound: "O=C1c2ccccc2C(=O)C12Cc1ccccc1N1CCN(c3ccccc3)CC12 (stereo unspecified)"
  Endpoint Label: "EC50"
  Measured Result: "> 120 µM (not active)"
- Compound: "C/C(=N\\Nc1nc2ccccc2[nH]1)c1ccccn1"
  Endpoint Label: "EC50"
  Measured Result: "0.306 µM (active)"
